Biological target: native Tsal proteins in G. m. morsitans saliva (Glossina morsitans morsitans (endogenous in saliva))
Experiment: SPR; 4000 RU G. m. morsitans saliva amine-coupled (10 mM sodium acetate pH 4.5) on a CM5 chip; purified Nb analytes 500 to 0.976 nM; BIAcore T200; contact 180 s, dissociation 600 s, 10 ul/min; Langmuir 1:1 fit
Reported koff values follow for various binders
Value expressed in s⁻¹; do not type the unit.

{"Binder": "TsalNb-8 (VHH) VHH: QVQLQESGGGLVQPGGSLRLSCAASVLTLDYYAMAWYRQAPGKQREGVSCITSSGGRTNYADSVKGRFTISRDNAKNMVYLQMNSLKPEDTAVYYCAATEWLAGTKCLSSHEYDYWGQGTQVTVSS", "Units Label": "s⁻¹", "koff": 0.017}
{"Binder": "TsalNb-5 (VHH) VHH: QVQLQESGGGLVQPGGSLRLSCAGSGLTLDYYAMGWYRQAPGKQREGVSCITSSGGRTNYADSVKGRFTISRDNAKNTVSLQMNSLKPEDTAVYYCAATEWLAGTKCLLSHEYDYWGQGTQVTVSS", "Units Label": "s⁻¹", "koff": 0.004}
{"Binder": "TsalNb-3 (VHH) VHH: QVQLQESGGGLVQVGGSLRLSCAVSGSIFSNNYMGWYRQAPGKQRELVAGITSGGSTNYADSVKGRFTISRDNAKNTVYLQMNSLLPEDTAVYYCKPRGWLTGRWENYWGQGTQVTVSS", "Units Label": "s⁻¹", "koff": 0.00051}

Now take the following binder into account.
Entry TsalNb-4 (VHH) VHH: QVQLQESGGGLVQVGGSLRLSCTASGSIFSINYAGWYRQAPGKQRELVAGITSGGSTNYADSVKGRFTISRDSAKNTVYLQMNSLKAEDTAVYYCKPRAWLTGRWENYWGQGTQVTVSS : reported koff = ? 0.0005
